assay: solvent given as SMILES; conditions: in ClCCl
RESULT_TYPE: emission maximum (nm)
API: value field is a number in nm; no unit string.

Worked examples follow.
# compound CCCCOc1c(C#N)cc2cc(C#N)c(OCCCC)c3c4c(OCCCC)c(C#N)cc5cc(C#N)c(OCCCC)c(c1c23)c54 ; its emission maximum = 514

# compound Cc1ccc(C2=[N+]3C(=Nc4c5ccccc5c(-c5ccc(C)s5)n4[B-]3(F)F)c3ccccc32)s1 ; its emission maximum = 841

# compound CCCCCCN1C(=O)c2cccc3c(-c4ccc(-c5cc(-c6ccccc6)nn5-c5ccccc5)s4)ccc(c23)C1=O ; its emission maximum = 517

# compound CCOC(=O)c1ccc(C2CC(c3cccc4ccccc34)=NN2c2ccc(C#N)cc2)cc1 (stereo not drawn) ; its emission maximum = 430

# compound C[Si]1(C)c2ccc(-c3ccc(-c4cccs4)s3)cc2C=Cc2cc(-c3ccc(-c4cccs4)s3)ccc21 ; its emission maximum = 424

Continuing:
# compound CN(C)c1ccc(/C=C/c2ncccn2)cc1 ; its emission maximum = 472

# compound Cc1c(C2=[N+]3C(=Cc4c(C)c5ccccc5n4[B-]3(F)F)c3ccccc32)[nH]c2ccccc12 ; its emission maximum = 648

# compound COc1cnc(-c2cc[n+](C3=C(F)C(F)(F)C(F)(F)[C-]3F)cc2)s1 ; its emission maximum = 466

# compound O=C(N/N=C/c1ccccc1O)c1cccc2ccccc12 ; its emission maximum = 393

# compound CCCCN1C(=O)c2cccc3c(C#CC#Cc4ccc5c6c(cccc46)C(=O)N(CCCC)C5=O)ccc(c23)C1=O ; its emission maximum = 432

# compound CCCCCCCCOc1ccc2c3cccc4c(OCCCCCCCC)ccc(c5cccc1c52)c43 ; its emission maximum = 469.99

# compound CCB1c2ccccc2Nc2ccccc21 ; its emission maximum = 494

# compound O=P(c1ccccc1)(c1ccccc1)c1cccc(-n2c(-c3ccccc3P(=O)(c3ccccc3)c3ccccc3)nc3ccccc32)c1 ; its emission maximum = 384

# compound CCOC(=O)/N=c1/oc2c(OC)cccc2cc1C#N ; its emission maximum = 465

# compound COc1ccc(C#Cc2nc3ccccc3nc2-c2cn(C)c3ccccc23)cc1 ; its emission maximum = 506

# compound COCc1ncc(-c2c3ccccc3c(-c3cnc(COC)nc3)c3ccccc23)cn1 ; its emission maximum = 420

# compound c1ccc(-c2c3c(c(-c4ccccc4)c4cc5ccccc5cc24)Cc2c(c(-c4ccccc4)c4cc5ccccc5cc4c2-c2ccccc2)C3)cc1 ; its emission maximum = 402

# compound CCN(CC)c1ccc2cc(/C=C/C3=C4CC/C(=C\c5cc6ccc(N(CC)CC)cc6oc5=O)C4=[O+][B-](F)(F)O3)c(=O)oc2c1 ; its emission maximum = 730

Provenance of the data: the Deep4Chem optical property database
